assay: Open label two way randomized crossover pharmacokinetic / absolute bioavailability study, SL ketamine wafer 25 mg vs 10 mg i.v. infusion; settings: male, human, plasma, iv, 10 mg, Vz, apparent volume of distribution following i.v. administration, Gmean of eight healthy volunteers; 10 mg as 30 min i.v. infusion
measured_attribute: Vd (L)
One number for each entry, in L.

Request: Which Vd value is on record for CNC1(c2ccccc2Cl)CCCCC1=O (racemic) ?
Response: 237

====

assay: Open label two way randomized crossover pharmacokinetic / absolute bioavailability study, SL ketamine wafer 25 mg vs 10 mg i.v. infusion; settings: human, plasma, iv, 10 mg, CL, clearance following i.v. administration, individual subjects; 10 mg as 30 min i.v. infusion
measured_attribute: clearance

Request: Any idea what its clearance is? The compound is CNC1(c2ccccc2Cl)CCCCC1=O (racemic) [RS ketamine, ketamine]
Response: 997 mL/min

====

experiment: Open label two way randomized crossover pharmacokinetic / absolute bioavailability study, SL ketamine wafer 25 mg vs 10 mg i.v. infusion; settings: male, human, plasma, iv, 10 mg, CL, clearance following i.v. administration, Gmean of eight healthy volunteers; 10 mg as 30 min i.v. infusion
measured_attribute: clearance (mL/min)
Give bare numbers, in mL/min.

Request: Need clearance of CNC1(c2ccccc2Cl)CCCCC1=O (racemic) , thanks.
Response: 653

====

Experiment: Open label two way randomized crossover pharmacokinetic / absolute bioavailability study, SL ketamine wafer 25 mg vs 10 mg i.v. infusion
Settings: human, plasma, other: sublingual, 25 mg, F, bioavailability, individual subjects; 25 mg SL wafer vs 10 mg i.v., dose adjusted AUC(0,∞)
From the text: The study was of open label two way randomized, crossover design in eight healthy male volunteers who all gave written informed consent. […] Key inclusion criteria were healthy adult males aged 18-65 years with a BMI 19-30 kg m^−2 in good general health including mental health as assessed by the Symptom Checklist-90-R (SCL-90-R®), a screening instrument which evaluates a broad range of psychological problems and symptoms of psychopathology. […]
measured_attribute: bioavailability
# answer = value followed by unit

Request: Value lookup for bioavailability; key = CNC1(c2ccccc2Cl)CCCCC1=O (racemic) [RS ketamine, ketamine]
Response: 30%

====

assay: Open label two way randomized crossover pharmacokinetic / absolute bioavailability study, SL ketamine wafer 25 mg vs 10 mg i.v. infusion; details: male, human, plasma, 25 mg, AUC(0,∞) (SL), Gmean of eight healthy volunteers; 25 mg sublingually as a wafer
measured_attribute: AUC(0-inf) (ng·h/mL)
Answers are plain numbers, in ng·h/mL.

Request: Look up AUC(0-inf) for this compound: CNC1(c2ccccc2Cl)CCCCC1=O (racemic) [RS ketamine, ketamine]
Response: 185

====

experiment: Open label two way randomized crossover pharmacokinetic / absolute bioavailability study, SL ketamine wafer 25 mg vs 10 mg i.v. infusion; details: male, human, plasma, iv, 10 mg, t1/2, terminal half-life (i.v.), median (min-max in text) of eight healthy volunteers; 10 mg as 30 min i.v. infusion
measured_attribute: half-life (h)
Numbers only, in h.

Request: Endpoint output: half-life of CNC1(c2ccccc2Cl)CCCCC1=O (racemic) [RS ketamine, ketamine] . Value?
Response: 4.5

====

test: Open label two way randomized crossover pharmacokinetic / absolute bioavailability study, SL ketamine wafer 25 mg vs 10 mg i.v. infusion; conditions: human, plasma, 25 mg, AUC(0,∞) (SL), individual subjects; 25 mg sublingually as a wafer
measured_attribute: AUC(0-inf) (µg·h/mL)
Give bare numbers, in µg·h/mL.

Request: Return reported AUC(0-inf); argument: CNC1(c2ccccc2Cl)CCCCC1=O (racemic) [RS ketamine, ketamine]
Response: 0.204

====

experiment: Open label two way randomized crossover pharmacokinetic / absolute bioavailability study, SL ketamine wafer 25 mg vs 10 mg i.v. infusion; settings: male, human, plasma, iv, 10 mg, AUC(0,∞) (i.v.), Gmean of eight healthy volunteers; 10 mg as 30 min i.v. infusion
measured_attribute: AUC(0-inf) (ng·h/mL)
Answers are plain numbers, in ng·h/mL.

Request: Would you kindly share the measured AUC(0-inf) for CNC1(c2ccccc2Cl)CCCCC1=O (racemic) ?
Response: 255
